Cited source for all entries: patent US20260216326A1

Target: T1, human TL1A (Fitzgerald #30R-AT070) (human, UniProt O95150 72-251, limits assumed)
T1 construct: Coated on the ELISA plate at 1 ug/mL; also called TNFSF15
T1 sequence (looked up): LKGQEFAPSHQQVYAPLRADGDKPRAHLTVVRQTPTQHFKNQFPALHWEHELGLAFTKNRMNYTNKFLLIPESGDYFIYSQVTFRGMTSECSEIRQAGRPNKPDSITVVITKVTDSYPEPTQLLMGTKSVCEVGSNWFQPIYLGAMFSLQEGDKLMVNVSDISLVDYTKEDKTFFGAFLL
Experiment: ELISA titration, coated human TL1A, culture supernatant
Each item that follows carries a reported Kd.
Note: unit pM is implicit; provide only the numeric part.

BINDER	Kd [pM]
A52 (antibody, human IgG1, V domains shown, human IgG1/kappa (pFuse vectors), culture supernatant) VH: QVQLVQSGAEVKKPGASVKVSCKASGFDIQDTYMHWVKQRPGQGLEWIGRIDPASGHTKYDPKFQVRATITTDTSTSTAYLELSSLRSEDTAVYYCARSGGLPDVWGQGTTVTVSS VL: EIVLTQSPGTLSASPGERATMSCRASSSVSYMYWYQQKPGQAPRPWIYATSNLASGVPDRFSGSGSGTDFTLTISRLEPEDFAVYYCQQWSGNPRTFGGGTKLEIK	27

Task: Output Kd of A148 (antibody, human IgG1, V domains shown, human IgG1/kappa (pFuse vectors), culture supernatant) VH: QVQLVQSGAEVKKPGASVKVSCKASGFDIQDTYMHWVRQAPGQGLEWMGRIEPASGHIKYDPKFQVRVTMTRDTSTSTVYMELSSLRSEDTAVYYCARSGGLPDWWGQGTTVTVSS VL: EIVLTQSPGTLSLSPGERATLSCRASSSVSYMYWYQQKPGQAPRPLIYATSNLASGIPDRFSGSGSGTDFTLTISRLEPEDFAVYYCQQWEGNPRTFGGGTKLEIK
Result: 46

Task: // Input: A105 (antibody, human IgG1, V domains shown, human IgG1/kappa (pFuse vectors), culture supernatant) VH: QVQLVQSGAEVKKPGASVKVSCKASGFDIQDTYMHWVKQRPGQGLEWIGRIDPASGHTKYDPKFQVRATITTDTSTSTVYMELSSLRSEDTAVYYCARSGGLPDVWGQGTTVTVSS VL: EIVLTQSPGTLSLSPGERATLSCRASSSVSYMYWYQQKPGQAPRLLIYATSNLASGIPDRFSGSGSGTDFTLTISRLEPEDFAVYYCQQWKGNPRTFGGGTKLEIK . Output its Kd only.
Result: 110
